- System: HOP-92 NSCLC
- METHOD_NOTES: NCI-60 one-dose screen, 48 h (100 = growth as untreated, 0 = no growth, -100 = all killed)
- CONDITION_CONTEXT: 10 µM
About 83,000 compounds went through this panel and 20% of them were active in at least one assay; those are over-represented in the sample as a whole.
// reported growth per item
State the answer as a number, implicitly in %.

MOLECULE | UNIT_NAME | growth
C/C(=N\NC(N)=S)C(C)(C)O | % | 88.1
c1ccc(OCCC[P+](c2ccccc2)(c2ccccc2)c2ccccc2)cc1 | % | -31.3
CC[C@@]1(C(N)=O)CC2C=CC1C2 (stereo partly specified) | % | 97.2
O=S(=O)(NC1c2ccccc2Oc2ccccc21)c1cc(Cl)ccc1Cl | % | 60.2
N=C(N)c1ccc(-c2ccc(-c3ccccc3)s2)cc1F | % | -83.7

// next entry
## Task Note down growth recorded for "Oc1ccc(/C=N\Nc2ccccn2)c(O)c1"
## Result 38.1

###

- Tested on: HCC-2998 colon
- METHOD_NOTES: NCI-60 one-dose screen, 48 h
- CONDITION_CONTEXT: 10 µM
The panel holds about 83,000 compounds, 20% with a hit somewhere; the sample as a whole holds those more often. Active and inactive are the calls of the source. How the source made its calls: active means growth percent below 10; inactive means the rest.
I would appreciate it if you answered using one of these outcomes: active, inactive

## Task For this compound, state the assay outcome: "COc1ccc(OC)c([N+](=O)[O-])c1C=O"
## Result inactive

## Task Give the logged outcome of this assay for the following compound: "CCc1ccc(-c2nnc(COc3ccc(-c4nc5ccc(C)cc5[nH]4)cc3OC)o2)cc1"
## Result inactive

## Task Per the assay record, what outcome was assigned to NC1CCC(Nc2nc(NCc3cc(Cl)ccc3O)c3ncn(C4CCCC4)c3n2)CC1 (configuration not stated) ?
## Result active

## Task Look up the recorded call for "CCCCn1c(=O)[nH]c(N)c(C(c2ccc(Cl)cc2)c2c(N)[nH]c(=O)n(CCCC)c2=O)c1=O" in this test.
## Result inactive

###

- Tested on: HCC-2998 colon
- METHOD_NOTES: NCI-60 one-dose screen, 48 h (100 = growth as untreated, 0 = no growth, -100 = all killed)
- CONDITION_CONTEXT: 10 µM
This is part of a sample that, as a whole, favours compounds with a hit. Of some 83,000 tested, about 20% had one in any assay.
A collection of compounds and their measured growth
Respond with the bare value in %.

COMPOUND | METRIC | VAL
COc1cc(-c2nc3ccccc3[nH]2)ccc1OCC(=O)N=Nc1c(O)[nH]c2ccccc12 | growth | 96.1
COc1cc(NS(C)(=O)=O)ccc1Nc1c2ccc(Cl)cc2nc2c(OC)cccc12 | growth | -26.6
CCOC(=O)c1c(Cl)c2c(n1Cc1cccc(OC)c1)-c1oncc1CC2 | growth | 39.8

## Task Return growth for the following compound: "CCn1nc(-c2ccc(C(=O)OC)cc2)nc2c(=O)n(C)c(=O)nc1-2"
## Result 116

## Task State its growth: "Cc1nc2cc(-n3c(-c4ccc(F)cc4)nc4ccccc4c3=O)ccc2n1Cc1ccccc1"
## Result 61.7

## Task Name the recorded growth of the compound listed here: CCCCCC(CCC)COC(=O)c1ccc(OC)cc1 (stereo not given)
## Result 99.5

## Task Look up and state reported growth for COc1cccc2c1C(=O)c1c(O)c3c(c(O)c1C2=O)C[C@@](O)(C(=O)COC(=O)c1ccccc1)C[C@@H]3OC1CC(N)C(O)C(C)O1 (stereo not given in full)
## Result -93

## Task Answer with the recorded growth for the compound listed here: "Nc1c(C(=O)Nc2ccccc2F)sc2nc3c(cc12)C(=O)CCC3"
## Result 43.8

## Task // fetch growth given entry "Brc1ccc(-c2cn3ccnc3c(-c3ccc(Br)cc3)n2)cc1"
## Result 60.2

## Task Fill in reported growth for this entry: "COC(=O)[C@]12CC[C@@H](C)[C@H](C)[C@@H]1C1=CC[C@@H]3[C@@]4(C)CC(=O)[C@H](O)[C@@](C)(CO)[C@@H]4C(=O)C[C@@]3(C)[C@]1(C)CC2"
## Result -61.1
